molecular target: Inositol-trisphosphate 3-kinase A (Rattus norvegicus, UniProt P17105); assay: Binding affinity against recombinant plasmid rat brain IP3K by overexpressing in Escherichia coli
Sequence (P17105 whole entry): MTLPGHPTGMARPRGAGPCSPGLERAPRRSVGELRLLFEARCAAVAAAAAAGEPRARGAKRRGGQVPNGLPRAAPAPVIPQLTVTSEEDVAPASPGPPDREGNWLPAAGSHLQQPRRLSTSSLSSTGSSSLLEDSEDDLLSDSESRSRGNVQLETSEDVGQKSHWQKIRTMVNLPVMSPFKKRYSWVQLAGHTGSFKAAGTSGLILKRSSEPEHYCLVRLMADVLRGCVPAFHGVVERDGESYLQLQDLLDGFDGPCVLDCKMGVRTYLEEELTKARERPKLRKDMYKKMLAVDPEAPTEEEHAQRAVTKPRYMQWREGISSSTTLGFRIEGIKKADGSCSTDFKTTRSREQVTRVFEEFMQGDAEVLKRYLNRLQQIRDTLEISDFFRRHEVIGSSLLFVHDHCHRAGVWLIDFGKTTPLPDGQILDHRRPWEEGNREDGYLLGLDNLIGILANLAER
pIC50: −log10 of the molar value.
measure name: pIC50

smiles input | numeric result
O=P(O)(O)O[C@H]1[C@H](OP(=O)(O)O)[C@H](O)[C@H](O)[C@@H](O)[C@@H]1OP(=O)(O)O | 4.56
O=P(O)(O)O[C@H]1[C@@H](O)[C@@H](OP(=O)(O)O)[C@H](OP(=O)(O)O)[C@@H](OP(=O)(O)O)[C@@H]1O | 4.40

* * *

target: Inositol-trisphosphate 3-kinase A (Rattus norvegicus, UniProt P17105); test: Binding affinity against recombinant plasmid rat brain IP3K by overexpressing in Escherichia coli
measure name: IC50 (µM)

molecule | measurement target | IC50, µM
O=P(O)(O)O[C@@H]1[C@H](O)[C@H](O)[C@@H](OP(=O)(O)O)[C@H](OP(=O)(O)O)[C@H]1O (stereo in doubt; form 1) [INS(1,4,5)P3] | Inositol-trisphosphate 3-kinase A (Rattus norvegicus, UniProt P17105) | 2.6
O=P(O)(O)O[C@@H]1[C@H](O)[C@H](O)[C@@H](OP(=O)(O)O)[C@H](OP(=O)(O)O)[C@H]1O (stereo in doubt; form 2) [INS(1,4,5)P3] | Inositol-trisphosphate 3-kinase A (Rattus norvegicus, UniProt P17105) | 6.3
O=P(O)(O)O[C@H]1[C@H](O)[C@@H](OP(=O)(O)O)[C@H](OP(=O)(O)O)[C@@H](OP(=O)(O)O)[C@H]1O | Inositol-trisphosphate 3-kinase A (Rattus norvegicus, UniProt P17105) | 27.8

P: O=P(O)(O)O[C@H]1[C@H](O)[C@@H](OP(=O)(O)O)[C@H](O)[C@@H](OP(=O)(O)O)[C@H]1O
Q: O=P(O)(O)O[C@@H]1[C@H](O)[C@H](O)[C@@H](OP(=O)(O)O)[C@H](OP(=O)(O)O)[C@H]1O (stereo in doubt; form 3) [INS(1,4,5)P3]
Which value of IC50 is numerically greater: that of P or that of Q ? Reply briefly: the label of your chosen item.
P
